assay: Aqueous solubility at pH 6.5; format: physicochemical
MEASUREMENT_TYPE: solubility

What solubility value was documented for this compound, "CCOC(=O)c1sc(Nc2nc(N3CCC(O)CC3)cc(N3CCC(O)CC3)n2)nc1C" ? 20 µg/mL

What solubility value was documented for this compound, "CCOC(=O)c1sc(Nc2nc(N3CCC(N(C)C)CC3)cc(N3CCN(C)CC3)n2)nc1C" ? > 20 µg/mL

What solubility value was documented for this compound, "CCOC(=O)c1sc(Nc2nc(N3CCC(O)CC3)cc(N3CCC(N(C)C)CC3)n2)nc1C" ? 20 µg/mL

What solubility value was documented for this compound, "CCOC(=O)c1sc(Nc2nc(N(C)Cc3cc(OC)c(OC)c(OC)c3)cc(N3CCN(C)CC3)n2)nc1C" ? > 20 µg/mL

What solubility value was documented for this compound, CCOC(=O)c1sc(Nc2nc(N3CCC(N(C)C)CC3)cc(N3CCNC(C(N)=O)C3)n2)nc1C (stereo unspecified) ? > 20 µg/mL

What solubility value was documented for this compound, "CCOC(=O)c1sc(Nc2nc(N3CCOCC3)cc(N3CCC(N(C)C)CC3)n2)nc1C" ? > 20 µg/mL

What solubility value was documented for this compound, "CCOC(=O)c1sc(Nc2nc(NCc3ccc(S(N)(=O)=O)cc3)cc(N3CCNCC3)n2)nc1C" ? 20 µg/mL

What solubility value was documented for this compound, "CCOC(=O)c1sc(Nc2nc(NCc3ccc(OC)c(OC)c3)cc(N3CCNCC3)n2)nc1C" ? > 20 µg/mL

What solubility value was documented for this compound, "CCOC(=O)c1sc(Nc2nc(N3CCN(C)CC3)cc(N3CCN(CCN(C)C)CC3)n2)nc1C" ? > 20 µg/mL

What solubility value was documented for this compound, CCOC(=O)c1sc(Nc2nc(N3CCC(N(C)C)CC3)cc(N3CCCC(CO)C3)n2)nc1C (stereo unspecified) ? > 20 µg/mL

What solubility value was documented for this compound, "CCOC(=O)c1sc(Nc2nc(N(C)Cc3cc(OC)c(OC)c(OC)c3)cc(N3CCNCC3)n2)nc1C" ? > 20 µg/mL

====

test: Inhibition of PDE4
Task for the reader: assign each of the following molecules its reported pIC50.
In plain terms, pIC50 is the concentration in mol/L turned into minus its base-10 logarithm.

What pIC50 value was documented for this molecule, "CCOC(=O)c1sc(Nc2nc(N(C)Cc3cc(OC)c(OC)c(OC)c3)cc(N3CCNCC3)n2)nc1C" ? 5.49

What pIC50 value was documented for this molecule, "CCOC(=O)c1sc(Nc2nc(NC)cc(NCc3ccc(S(N)(=O)=O)cc3)n2)nc1C" ? 7.52

What pIC50 value was documented for this molecule, "CCOC(=O)c1sc(Nc2nc(NCc3ccc(OC)c(OC)c3)cc(N3CCNCC3)n2)nc1C" ? 5.64

What pIC50 value was documented for this molecule, "CCOC(=O)c1sc(Nc2nc(N3CCOCC3)cc(N3CCC(N(C)C)CC3)n2)nc1C" ? 5.02

What pIC50 value was documented for this molecule, CCOC(=O)c1sc(Nc2nc(N3CCC(N(C)C)CC3)cc(N3CCNC(C(N)=O)C3)n2)nc1C (configuration not stated) ? 5.10

What pIC50 value was documented for this molecule, "CCOC(=O)c1sc(Nc2nc(N3CCC(O)CC3)cc(N3CCC(O)CC3)n2)nc1C" ? 5.49

What pIC50 value was documented for this molecule, "CCOC(=O)c1sc(Nc2nc(NCc3ccc(S(N)(=O)=O)cc3)cc(N3CCNCC3)n2)nc1C" ? 6.66

What pIC50 value was documented for this molecule, "CCOC(=O)c1sc(Nc2nc(N(C)Cc3cc(OC)c(OC)c(OC)c3)cc(N3CCN(C)CC3)n2)nc1C" ? 5.29

What pIC50 value was documented for this molecule, CCOC(=O)c1sc(Nc2nc(N3CCC(N(C)C)CC3)cc(N3CCCC(CO)C3)n2)nc1C (configuration not stated) ? 5.03

What pIC50 value was documented for this molecule, "CCOC(=O)c1sc(Nc2nc(N3CCN(C)CC3)cc(N3CCN(CCN(C)C)CC3)n2)nc1C" ? 5.03

====

tested on: Splenocyte; experiment: Immunosuppressant activity in wild type splenocyte assessed as antiproliferation; type: functional, cell-based; conditions: Mus musculus
MEASUREMENT_TYPE: IC50 (nM)
Express the result in nM but write the number alone.

What IC50 value was documented for this compound, "CCOC(=O)c1sc(Nc2nc(N3CCC(O)CC3)cc(N3CCC(O)CC3)n2)nc1C" ? 210
